Recorded values, source patent US20110250454A1.

Experiment: Particle size distribution (laser diffraction, Malvern instrument)
Format: physicochemical
Settings: 90 volume percent of particles smaller than value; Hydrochloride
Structures can show the parent of a compound that is named as a salt.
Entries whose particle size distribution D90 is below 10 μm take True; entries at or above 10 μm take False.

- OC(CNCC(O)C1CCc2cc(F)ccc2O1)C1CCc2cc(F)ccc2O1 (stereo not shown) [Example 8, Nebivolol Hydrochloride]: False
- OC(CNCC(O)C1CCc2cc(F)ccc2O1)C1CCc2cc(F)ccc2O1 (stereo not shown) [Example 56, Nebivolol Hydrochloride]: False
- OC(CNCC(O)C1CCc2cc(F)ccc2O1)C1CCc2cc(F)ccc2O1 (stereo not shown) [Example 60, Nebivolol Hydrochloride]: True
- OC(CNCC(O)C1CCc2cc(F)ccc2O1)C1CCc2cc(F)ccc2O1 (stereo not shown) [Example 52, Nebivolol Hydrochloride]: False
- OC(CNCC(O)C1CCc2cc(F)ccc2O1)C1CCc2cc(F)ccc2O1 (stereo not shown) [Example 53, Nebivolol Hydrochloride]: False
- OC(CNCC(O)C1CCc2cc(F)ccc2O1)C1CCc2cc(F)ccc2O1 (stereo not shown) [Example 55, Nebivolol Hydrochloride]: False
- OC(CNCC(O)C1CCc2cc(F)ccc2O1)C1CCc2cc(F)ccc2O1 (stereo not shown) [Example 54, Nebivolol Hydrochloride]: True

* * *

Test: Particle size distribution (laser diffraction, Malvern instrument)
Assay type: physicochemical
Settings: 50 volume percent of particles smaller than value; Hydrochloride
Counter-ions that a name gives are not always drawn.
Each entry below carries its reported particle size distribution D50.
measurement_name: particle size distribution D50 (μm)

* OC(CNCC(O)C1CCc2cc(F)ccc2O1)C1CCc2cc(F)ccc2O1 (stereo not shown) [Example 52, Nebivolol Hydrochloride] | 4.571
* OC(CNCC(O)C1CCc2cc(F)ccc2O1)C1CCc2cc(F)ccc2O1 (stereo not shown) [Example 55, Nebivolol Hydrochloride] | 6.29
* OC(CNCC(O)C1CCc2cc(F)ccc2O1)C1CCc2cc(F)ccc2O1 (stereo not shown) [Example 53, Nebivolol Hydrochloride] | 4.46
* OC(CNCC(O)C1CCc2cc(F)ccc2O1)C1CCc2cc(F)ccc2O1 (stereo not shown) [Example 8, Nebivolol Hydrochloride] | 19.1
* OC(CNCC(O)C1CCc2cc(F)ccc2O1)C1CCc2cc(F)ccc2O1 (stereo not shown) [Example 54, Nebivolol Hydrochloride] | 3.363
* OC(CNCC(O)C1CCc2cc(F)ccc2O1)C1CCc2cc(F)ccc2O1 (stereo not shown) [Example 60, Nebivolol Hydrochloride] | 3.52
* OC(CNCC(O)C1CCc2cc(F)ccc2O1)C1CCc2cc(F)ccc2O1 (stereo not shown) [Example 56, Nebivolol Hydrochloride] | 3.17

* * *

Each entry below carries its reported particle size distribution D10.
Assay: Particle size distribution (laser diffraction, Malvern instrument)
Format: physicochemical
Conditions: 10 volume percent of particles smaller than value; Hydrochloride
Structures can show the parent of a compound that is named as a salt.
measurement_name: particle size distribution D10 (μm)

* OC(CNCC(O)C1CCc2cc(F)ccc2O1)C1CCc2cc(F)ccc2O1 (stereo not shown) [Example 54, Nebivolol Hydrochloride] | 1.314
* OC(CNCC(O)C1CCc2cc(F)ccc2O1)C1CCc2cc(F)ccc2O1 (stereo not shown) [Example 60, Nebivolol Hydrochloride] | 1.43
* OC(CNCC(O)C1CCc2cc(F)ccc2O1)C1CCc2cc(F)ccc2O1 (stereo not shown) [Example 52, Nebivolol Hydrochloride] | 1.753
* OC(CNCC(O)C1CCc2cc(F)ccc2O1)C1CCc2cc(F)ccc2O1 (stereo not shown) [Example 8, Nebivolol Hydrochloride] | 3.94
* OC(CNCC(O)C1CCc2cc(F)ccc2O1)C1CCc2cc(F)ccc2O1 (stereo not shown) [Example 56, Nebivolol Hydrochloride] | 1.23
* OC(CNCC(O)C1CCc2cc(F)ccc2O1)C1CCc2cc(F)ccc2O1 (stereo not shown) [Example 53, Nebivolol Hydrochloride] | 1.87
* OC(CNCC(O)C1CCc2cc(F)ccc2O1)C1CCc2cc(F)ccc2O1 (stereo not shown) [Example 55, Nebivolol Hydrochloride] | 2.37
